FYI, the data here is from the Human Domainome abundance scans (Beltran et al. 2025).

B1: CD2-associated protein, residues 271 to 331; numbered along this chain, Q9Y5K6 (parent)
chain: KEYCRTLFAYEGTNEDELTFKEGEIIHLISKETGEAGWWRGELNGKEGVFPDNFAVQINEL

Variants of: B1
measurementProtocol: abundance fitness (aPCA) (normalised: wild type 0, dead -1); higher = more abundant; growth selection in yeast, the domain comes from the species named
settings: Homo sapiens
Outcome label depends on abundance fitness relative to -0.5: at/above gives condition met, below gives condition not met.

sequenceChange: I26Q
qualitativeLabel: condition not met
--
sequenceChange: E47T
qualitativeLabel: condition met
--
sequenceChange: I58D
qualitativeLabel: condition met
--
sequenceChange: T19E
qualitativeLabel: condition not met
--
sequenceChange: E11M
qualitativeLabel: condition met
--
sequenceChange: G45C
qualitativeLabel: condition met
--
sequenceChange: L7P
qualitativeLabel: condition not met
--
sequenceChange: D52Q
qualitativeLabel: condition met
--
sequenceChange: F50D
qualitativeLabel: condition not met
--
sequenceChange: E17P
qualitativeLabel: condition not met
